# protocol: Metabolic stability in rat liver microsomes assessed as parent compound remaining after 10 mins
# Format: ADME, microsome
# experimental.parameters: read-out: Stability
assay.metric: remaining at 10 min
Could you give the number and then its unit, please?

Past entries and their recorded results:
[
  {
    "given.smiles": "COc1cnc(-n2cc(C)nn2)c2[nH]cc(C(=O)C(=O)N3CCN(C(=O)c4ccccc4)CC3)c12",
    "remaining at 10 min": "84%"
  },
  {
    "given.smiles": "COc1cnc(-c2cnccn2)c2[nH]cc(C(=O)C(=O)N3CCN(C(=O)c4ccccn4)[C@H](C)C3)c12",
    "remaining at 10 min": "80%"
  }
]

Then there is this compound:
Problem: Fill blank: measured remaining at 10 min of the compound `COc1cnc(-n2ccc(CN(C)C)n2)c2[nH]cc(C(=O)C(=O)N3CCN(C(=O)c4ccccc4)CC3)c12` is ____.
Solution: 100%
